# study.target: A1 adenosine receptors (Rattus norvegicus, UniProt P25099)
# Construct: rat cerebral cortex membranes; from tissue; host or cells: rat cerebral cortex membranes
# Sequence (P25099 whole entry): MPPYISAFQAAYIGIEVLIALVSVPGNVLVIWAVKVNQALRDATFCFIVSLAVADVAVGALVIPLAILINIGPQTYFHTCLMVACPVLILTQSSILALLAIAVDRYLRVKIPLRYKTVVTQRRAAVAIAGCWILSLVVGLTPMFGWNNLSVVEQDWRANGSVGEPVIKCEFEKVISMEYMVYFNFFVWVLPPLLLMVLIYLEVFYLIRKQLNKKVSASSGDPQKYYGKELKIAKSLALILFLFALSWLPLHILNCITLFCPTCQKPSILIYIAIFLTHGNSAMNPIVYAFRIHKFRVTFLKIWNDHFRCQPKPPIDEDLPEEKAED
# experiment.summary: membrane binding assay at A1 adenosine receptors (Tables 1 and 2)
# condition.info: Table 2; read-out: Ki (A1(nM))
Structures can show the parent of a compound that is named as a salt.

>  <compound>
CCCn1c(=O)c2[nH]c(-c3ccc(OCC(=O)NCCNC(=O)[C@H](N)Cc4ccc(N)c(I)c4)cc3)nc2n(CCC)c1=O [TFA.HD(p-NH2 -m-I)PheXAC]

>  <study.target>
A1 adenosine receptors (Rattus norvegicus, UniProt P25099)

>  <Ki>
4 nM

$$$$
>  <compound>
CC(=O)N[C@@H](CCC(=O)NCCNC(=O)Cc1ccc(NC(=O)Cc2ccc(Nc3ncnc4c3ncn4[C@@H]3O[C@H](CO)[C@@H](O)[C@H]3O)cc2)cc1)C(=O)O

>  <study.target>
A1 adenosine receptors (Rattus norvegicus, UniProt P25099)

>  <Ki>
> 10 nM

$$$$
>  <compound>
CCCCCCCC/C=C/CCCCCCCC(=O)OCCNC(=O)COc1ccc(-c2nc3c([nH]2)c(=O)n(CCC)c(=O)n3CCC)cc1 [O-elaidoyl-XHC, Elaidic ester of hydroxy congener]

>  <study.target>
A1 adenosine receptors (Rattus norvegicus, UniProt P25099)

>  <Ki>
85 nM

$$$$
>  <compound>
CCCn1c(=O)c2[nH]c(-c3ccc(OCC(=O)NCCNC(=O)[C@H](N)Cc4ccc([N+](=O)[O-])cc4)cc3)nc2n(CCC)c1=O [TFA.HD(p-NO2)PheXAC]

>  <study.target>
A1 adenosine receptors (Rattus norvegicus, UniProt P25099)

>  <Ki>
4.3 nM

$$$$
>  <compound>
CCCCCCCCCCCCCC(=O)NCCNC(=O)COc1ccc(-c2nc3c([nH]2)c(=O)n(CCC)c(=O)n3CCC)cc1

>  <study.target>
A1 adenosine receptors (Rattus norvegicus, UniProt P25099)

>  <Ki>
98 nM

$$$$
>  <compound>
CCCn1c(=O)c2[nH]c(-c3ccc(OCC(=O)NCCNC(=O)[C@H](CC(=O)O)NC(=O)OC(C)(C)C)cc3)nc2n(CCC)c1=O

>  <study.target>
A1 adenosine receptors (Rattus norvegicus, UniProt P25099)

>  <Ki>
30 nM

$$$$

---

# experiment.summary: octanol/water partition coefficient
# Format: physicochemical
# condition.info: n-octanol / sodium phosphate pH 7.2, 0.1 M; read-out: octanol/water partition coefficient (log p)
Structures can show the parent of a compound that is named as a salt.
Listing of recorded logD by entry.

>  <compound>
Cn1c(=O)c2[nH]c(-c3ccc(OCC(=O)Nc4ccc(CC(=O)NCCN)cc4)cc3)nc2n(C)c1=O [Compound 59a]

>  <logD>
-0.05

$$$$
>  <compound>
CCn1c(=O)c2[nH]c(-c3ccc(OCC(=O)NCCN)cc3)nc2n(CC)c1=O [Compound 56b]

>  <logD>
-0.06

$$$$
>  <compound>
CCCn1c(=O)c2[nH]c(-c3ccc(OCC(=O)NCCN)cc3)nc2n(CCC)c1=O [Compound 1a]

>  <logD>
0.81

$$$$
>  <compound>
CCn1c(=O)c2[nH]c(-c3ccc(OCC(=O)NCCNC(=O)[C@H](N)CCCCN)cc3)nc2n(CC)c1=O [Compound 61b, Dihydrochloride]

>  <logD>
-1.2

$$$$

---

Reported log10 of Ki values for a set of compounds
# study.target: A1 adenosine receptors (Rattus norvegicus)
# Construct: rat cerebral cortex membranes; from tissue; host or cells: rat cerebral cortex membranes
# experiment.summary: membrane binding assay at A1 adenosine receptors (Tables 1 and 2)
# condition.info: Table 2; read-out: Ki (A1(nM))
measurement.type: log10 of Ki (log10 of the value in nM)

>  <smiles.text>
CCCn1c(=O)c2[nH]c(-c3ccc(OCC(=O)NCCNC(=O)CC[C@H](NC(=O)OC(C)(C)C)C(=O)OCc4ccccc4)cc3)nc2n(CCC)c1=O

>  <study.target>
A1 adenosine receptors (Rattus norvegicus)

>  <log10 of Ki>
1.26

$$$$
>  <smiles.text>
CCCn1c(=O)c2[nH]c(-c3ccc(OCC(=O)NCCNC(=O)CN(CC(=O)O)C(=O)OCC4c5ccccc5-c5ccccc54)cc3)nc2n(CCC)c1=O

>  <study.target>
A1 adenosine receptors (Rattus norvegicus)

>  <log10 of Ki>
2.23

$$$$
>  <smiles.text>
CCCn1c(=O)c2[nH]c(-c3ccc(OCC(=O)NCCNC(=O)[C@@H](Cc4ccc([N+](=O)[O-])cc4)NC(=O)OC(C)(C)C)cc3)nc2n(CCC)c1=O

>  <study.target>
A1 adenosine receptors (Rattus norvegicus)

>  <log10 of Ki>
1.95

$$$$
>  <smiles.text>
CCCn1c(=O)c2[nH]c(-c3ccc(OCC(=O)NCCO)cc3)nc2n(CCC)c1=O

>  <study.target>
A1 adenosine receptors (Rattus norvegicus)

>  <log10 of Ki>
1.11

$$$$
>  <smiles.text>
CCCn1c(=O)c2[nH]c(-c3ccc(OCC(=O)NCCNC(=O)CNC(=O)CNC(=O)CN)cc3)nc2n(CCC)c1=O

>  <study.target>
A1 adenosine receptors (Rattus norvegicus)

>  <log10 of Ki>
1.00

$$$$
>  <smiles.text>
CCCn1c(=O)c2[nH]c(-c3ccc(OCC(=O)NCCNC(=O)OCc4ccccc4)cc3)nc2n(CCC)c1=O

>  <study.target>
A1 adenosine receptors (Rattus norvegicus)

>  <log10 of Ki>
0.90

$$$$

---

# experiment.summary: brain and plasma level after I.V. dosing in rats
# Type: in vivo, rat
# condition.info: rat, plasma, iv, 1 mg/kg I.V., read-out: plasma conc. after 10 min
Quick reference for concentration at 10 min among some molecules

>  <smiles.text>
CCCn1c(=O)c2[nH]c(-c3ccc(OCC(=O)NCCN)cc3)nc2n(CCC)c1=O

>  <concentration at 10 min>
2650 ng/mL

$$$$
>  <smiles.text>
CCCn1c(=O)c2[nH]c(-c3ccc(OCC(=O)O)cc3)nc2n(CCC)c1=O

>  <concentration at 10 min>
2650 ng/mL

$$$$

---

// reported log10 Ki per item
# study.target: A1 adenosine receptors (Rattus norvegicus)
# Construct: rat cerebral cortex membranes; from tissue; host or cells: rat cerebral cortex membranes
# experiment.summary: membrane binding assay at A1 adenosine receptors (Tables 1 and 2)
# condition.info: Table 2; read-out: Ki (A1(nM))
measurement.type: log10 Ki (log10 of the value in nM)

>  <smiles.text>
CCCCCCCCCCCCCC(=O)OCC(COC(=O)CCCCCCCCCCCCC)OC(=O)COc1ccc(-c2nc3c([nH]2)c(=O)n(CCC)c(=O)n3CCC)cc1

>  <value.observed>
2.02

$$$$
>  <smiles.text>
CCCn1c(=O)c2[nH]c(-c3ccc(OCC(=O)NCCNC(=O)[C@@H](NC(=O)[C@H](Cc4ccc(OC(C)=O)cc4)NC(C)=O)C(C)C)cc3)nc2n(CCC)c1=O

>  <value.observed>
0.70

$$$$
>  <smiles.text>
CCCn1c(=O)c2c(nc(-c3ccc(OCC(=O)NCCN)cc3)n2Cc2ccccc2)n(CCC)c1=O

>  <value.observed>
2.40

$$$$
>  <smiles.text>
CCCn1c(=O)c2[nH]c(-c3ccc(OCC(=O)NCCNC(=O)CNC(=O)CNC(=O)OCc4ccccc4)cc3)nc2n(CCC)c1=O

>  <value.observed>
0.49

$$$$
>  <smiles.text>
CCCn1c(=O)c2[nH]c(-c3ccc(OCC(=O)NCCNC(=O)[C@H](CC(=O)OCc4ccccc4)NC(=O)OC(C)(C)C)cc3)nc2n(CCC)c1=O

>  <value.observed>
2.18

$$$$

---

# study.target: A1 adenosine receptors (Rattus norvegicus)
# Construct: rat cerebral cortex membranes; from tissue; host or cells: rat cerebral cortex membranes
# experiment.summary: membrane binding assay at A1 adenosine receptors (Tables 1 and 2)
# condition.info: Table 2; read-out: Ki (A1(nM))
# Excerpt: Table 2 lists prodrugs (including Routes A and B of FIG. 2) and chemical intermediates, based on xanthine and adenosine functionalized congener and the method of synthesis. The potency of each compound at A1 adenosine receptors is indicated by the Ki (inverse relationship to potency) in a membrane binding assay.

>  <smiles.text>
CCCn1c(=O)c2[nH]c(-c3ccc(OCC(=O)NCCNC(=O)CC[C@H](NC(C)=O)C(=O)OCc4ccccc4)cc3)nc2n(CCC)c1=O

>  <study.target>
A1 adenosine receptors (Rattus norvegicus)

>  <unit.info>
nM

>  <Ki>
9.8

$$$$
>  <smiles.text>
CCCCC/C=C\C/C=C\CCCCCCCC(=O)NCCNC(=O)COc1ccc(-c2nc3c([nH]2)c(=O)n(CCC)c(=O)n3CCC)cc1

>  <study.target>
A1 adenosine receptors (Rattus norvegicus)

>  <unit.info>
nM

>  <Ki>
35

$$$$
>  <smiles.text>
CCCn1c(=O)c2[nH]c(-c3ccc(OCC(=O)NCCNC(=O)[C@@H](Cc4ccc(N)cc4)NC(=O)OC(C)(C)C)cc3)nc2n(CCC)c1=O

>  <study.target>
A1 adenosine receptors (Rattus norvegicus)

>  <unit.info>
nM

>  <Ki>
32

$$$$
